# study-target: T1, human PD-L1 expressed on cells (HCC827, NCI-H292, CHO-PD-L1, engineered CHO-K1) (human, UniProt Q9NZQ7 19-290)
# T1 construct: whole, on cells; Endogenous on the human lung lines HCC827 and NCI-H292; transfected on CHO cells; also called PD-L1 on HCC827; PD-L1 on NCI-H292
# T1 sequence (Q9NZQ7 19-290, change not shown): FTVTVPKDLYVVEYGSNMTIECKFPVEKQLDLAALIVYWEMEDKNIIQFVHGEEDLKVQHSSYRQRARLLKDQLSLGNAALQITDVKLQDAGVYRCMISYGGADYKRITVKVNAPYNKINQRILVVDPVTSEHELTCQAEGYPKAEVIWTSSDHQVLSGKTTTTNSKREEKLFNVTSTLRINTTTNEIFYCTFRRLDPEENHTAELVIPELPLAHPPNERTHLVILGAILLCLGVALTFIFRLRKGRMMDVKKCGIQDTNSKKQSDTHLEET
# assay-details: flow cytometry on HCC827 cells, apparent Kd
pKd: −log10 of the molar value.
List of pKd values.

>  <binder>
752-hIgG1 (chimeric PAL752) (antibody, V domains shown) VH: EVQLQESGAELARPGASVKLSCKASGHAFTSDSINWVKQRIGQGLEWIGEIYPRSGNPYYNEKFKGKATLTADKSSSTAYMELRSLTSEDSAVYFCATDYYGRYFDVWGTGTTVTVSS VL: DIQMTQSSFSFSVSLGDRVTIICKASEDIYNRLAWYQQKPGNTPRLLISGATSLETGVPSRFSGSGSGKDYTLSITSLQTEDVATYYCQQYWSTPWTFGGGTKLEIK

>  <pKd>
8.44

$$$$
>  <binder>
788-hIgG1 (chimeric PAL788) (antibody, V domains shown) VH: QVQLQQPGAELVKPGASVKLSCKASGYTFTSNWMNWVKQRPGRGLEWIGRIHPSDSETHYHQKFKSKATLTVDKSSSTAYIQLSSLTSEDSAVYYCAHSSGDYGRDYWGQGTTLTVSS VL: NIVLTQSPASLAVSLGQRATISCRASESVDSYGNSFMHWYQQKPGQPPKLLIYLASNLQSGVPARFSGSGSRTDFTLTIDPVEADDAATYYCQQNNEDPWTFGGGTKLEIK

>  <pKd>
8.80

$$$$
>  <binder>
785-hIgG1 (chimeric PAL785) (antibody, V domains shown) VH: EVQLQESGPELVKPGTSVKMSCKASGYTFTSYVMHWVKQRPGQGLEWIGYINPYNDGSKYNEKFKGKATLTSDTSSSTAYMELSSLTSEDSAVYYCAKQTLDFWGQGTSVTVST VL: DIVLTQSPASLAVSLGQRATISCRASESVEFYGTTLMQWYQQKPGQPPKLLIYAASNVESGVPARFSGSGSGTDFSLNIHPVEEGDIGMYFCQQSRKVPYTFGGGTKLEIK

>  <pKd>
9.54

$$$$
>  <binder>
769-hIgG1 (chimeric PAL769) (antibody, V domains shown) VH: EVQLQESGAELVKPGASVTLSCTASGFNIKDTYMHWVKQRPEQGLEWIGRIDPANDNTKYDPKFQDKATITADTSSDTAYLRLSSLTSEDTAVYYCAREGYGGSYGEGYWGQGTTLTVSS VL: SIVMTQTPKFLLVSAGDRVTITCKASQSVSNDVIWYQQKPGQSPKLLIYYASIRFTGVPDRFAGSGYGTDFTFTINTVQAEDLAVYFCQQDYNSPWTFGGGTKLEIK

>  <pKd>
9.77

$$$$
